Assay: gradient 5% acetonitrile 3 min, to 50% in 2 min, to 85% in 15 min, held 3 min, 100 µL/min
Details: column: Zorbax Extend-C18 2.1 x 50 mm; eluents: water / acetonitrile, 0.1% formic acid
REPORTED_PROPERTY: RP-LC retention time (s)
Just the number please, in s, no unit attached.

Query :: RP-LC retention time for O=C(c1cccc(OCC2CCCN(C(=O)C3CCCO3)C2)c1)N1CCCC1 (stereo not drawn) ?
Result :: 718

Query :: // query: Cc1cc(C)c2c(N3CCSCC3)nc(C(=O)NCCN3CCCC3)nc2n1
Result :: 600

Query :: // query: Cc1ccc(CN2CCC3(CC2)CC(C)(O)CCO3)nc1 (stereo not drawn)
Result :: 556

Query :: // query: O=C1CCCN1CCCN1C(=O)[C@H]2CN(Cc3ccccc3OC(F)(F)F)C[C@H]2C1=O
Result :: 687

Query :: // query: O=C(NC1CC1)c1cccc(OCC2CCCN(C(=O)C3CCCO3)C2)c1 (stereo not drawn)
Result :: 689

Query :: // query: CSc1ccc(C(=O)NC2CCCCC2NC(=O)CNC(=O)c2cc(C(F)(F)F)ccc2NC(=O)NC(C)C)cc1 (stereo not drawn)
Result :: 924

Query :: // query: CCOc1ccc(CNc2nc3ccncc3n(C(C)C)c2=O)cc1OC
Result :: 584

Query :: // query: COCCNC(=O)c1csc(N2CCN(c3ccc(OC)cc3)CC2)n1
Result :: 767

Query :: // query: CCOC(=O)c1cc(S(=O)(=O)N2CCCC2C(=O)Nc2cccc(C)n2)cn1C (stereo not drawn)
Result :: 847

Query :: // query: CCc1ccc(C2=C(C)C(N3CCC(NC(=O)CCOC)CC3)=NS2(=O)=O)cc1
Result :: 761

Query :: // query: CCC(C)NC(=O)CSc1nc2nc(C)cc(C)n2n1 (stereo not drawn)
Result :: 650

Query :: // query: COc1cccc(COc2coc(C(=O)Nc3nnc(C)s3)cc2=O)c1
Result :: 660

Query :: // query: Cc1ccc(NC(=O)C2CCCN(c3ccc(=O)n(-c4cccc(Cl)c4)n3)C2)c(C)c1 (stereo not drawn)
Result :: 964

Query :: // query: O=C(c1ccsc1)N1CCN(c2nnc3c(Cl)cccn23)CC1
Result :: 635

Query :: // query: COc1ccccc1N1CCN(S(=O)(=O)c2cc(-c3nc(C(C)C)cs3)sc2C)CC1
Result :: 1410

Query :: // query: CSc1ccc(-c2noc(Cn3ncn4nc(-c5ccccc5Cl)cc4c3=O)n2)cc1
Result :: 1200

Query :: // query: COC(=O)N1CCc2ccc(F)cc2C1C(=O)Nc1cccc2nsnc12 (stereo not drawn)
Result :: 754

Query :: // query: Cc1ccc(Oc2cccc(C(=O)NCc3ccc(F)cc3)c2)nn1
Result :: 681

Query :: // query: Cc1nc(OCC(=O)NCc2ccc3c(c2)OCO3)c2ccccc2n1
Result :: 698

Query :: // query: CN1C(=O)c2cccnc2Sc2cc(C(=O)NCc3cccc(Cl)c3)ccc21
Result :: 818

Query :: // query: COc1ccc(NC(=O)c2c(C)oc3c2C2=NCCN2C=N3)cc1Cl
Result :: 625

Query :: // query: O=C(c1nnc(-c2ccc(S(=O)(=O)N3CCCCC3)cc2)o1)N1CCCCCC1
Result :: 1010

Query :: // query: COc1cc2ncnc(Nc3cccc(Br)c3)c2cc1OC
Result :: 771

Query :: // query: Cc1ccc(Oc2cccc(NC(=O)Cc3noc4ccccc34)c2)nn1
Result :: 699

Query :: // query: CCOc1ccc(-c2noc(Cn3ccn4nc(-c5ccc(F)cc5)cc4c3=O)n2)cc1OC
Result :: 819

Query :: // query: Cc1nnc(NC(=O)c2ccc(S(=O)(=O)NCc3ccccn3)o2)s1
Result :: 581

Query :: // query: CCCCC(=O)Nc1nc(-c2ccc3c(c2)NC(=O)C(C)O3)cs1 (stereo not drawn)
Result :: 863

Query :: // query: Cc1ccc(S(=O)(=O)N2c3ccccc3NC3=C(C(=O)CCC3)C2c2ccco2)cc1 (stereo not drawn)
Result :: 837

Query :: // query: COc1ccc(C(=O)Nc2nc(-c3ccc4c(c3)N(C)C(=O)CO4)c(C)s2)cc1OC
Result :: 906

Query :: // query: CCc1noc(NC(C)=O)c1-c1ccc(OC)c(S(=O)(=O)N2CCc3ccccc3C2)c1
Result :: 628

Query :: // query: CCCn1c(=O)c(N2CCN(C(=O)C3CCC3)CC2)nc2ccccc21
Result :: 994

Query :: // query: CN(C)c1ccc(C(CNC(=O)c2ccccc2[N+](=O)[O-])N2CCOCC2)cc1 (stereo not drawn)
Result :: 560

Query :: // query: COc1ccc(S(=O)(=O)NCc2ccc3c(c2)CCN3C(=O)c2ccccc2)cc1OC
Result :: 824

Query :: // query: CCOC(=O)c1[nH]c(C)c(CN(Cc2ccccc2)C(=O)c2ccco2)c1C
Result :: 946

Query :: // query: CCc1ccccc1NC(=O)N1CCC2(CC1)NC(=O)c1ccccc1N2CC
Result :: 797

Query :: // query: CC(C(=O)NCCCN1CCN(C2CCCCC2)CC1)n1c(=O)c(C(F)(F)F)nc2ccccc21 (stereo not drawn)
Result :: 639

Query :: // query: O=C(Cn1cccc1-c1nnc(-c2ccccc2)o1)NCc1cccs1
Result :: 854

Query :: // query: Cc1nc(-c2ccc(F)cc2)sc1C(=O)N1CCC(C(C)C(=O)N2CCOCC2)CC1 (stereo not drawn)
Result :: 745
